Origin of the recorded values: patent US9510598B2

system: Septoria tritici; experiment: In vivo preventive test on Septoria tritici (leaf spot on wheat); conditions: 500 ppm; wheat plants sprayed 24 hours before contamination; grading 21 to 28 days after contamination vs control plants
EXPERIMENTAL READOUT: % of efficacy (protection) (%)
Provide only the numeric value, understood in %.

q: Requested read-out % of efficacy (protection), target or system Septoria tritici, entry CCn1cc(CNC(=O)C2(C)CC(c3ccc4ncc(Cl)cc4c3)=NO2)c(C)n1 (stereo not shown)
a: 100

q: Can you check C#Cc1cnc2ccc(C3=NOC(C)(C(=O)NCC4CCC(=O)N4C)C3)cc2c1 (stereo not shown) next?
a: 97

q: Can you check C#Cc1cnc2ccc(C3=NOC(C)(C(=O)NC(C)COCC)C3)cc2c1 (stereo not shown) next?
a: 100

q: Can you check C#Cc1cnc2ccc(C3=NOC(CC)(C(=S)NCc4cn(CC)nc4C)C3)cc2c1 (stereo not shown) next?
a: 97

---

type: physicochemical; conditions: HPLC on reversed phase columns, method [a]: pH 2.7, 0.1% formic acid in water / acetonitrile, linear gradient 10% to 95% acetonitrile
Assignment: determine reported log P for the given compounds.

q: Data request, read-out log P, for C#Cc1cnc2c(C)cc(C3=NOC(C)(C(=O)NC(C)C)C3)cc2c1 (stereo not shown)
a: 3.06[a]

q: Can you check CON(C(=O)C1(C)CC(c2ccc3ncc(Br)cc3c2)=NO1)C(C)C (stereo not shown) next?
a: 3.59[a]

q: Can you check C#Cc1cnc2c(Cl)cc(C3=NOC(OC)(C(=O)NCCCOCC)C3)cc2c1 (stereo not shown) next?
a: 2.88[a]

q: Can you check C#CC(C)(C)NC(=O)C1(C)CC(c2ccc3ncc(Br)cc3c2)=NO1 (stereo not shown) next?
a: 3.08[a]

q: Can you check COc1ccnc(CNC(=O)C2(C)CC(c3ccc4ncc(Br)cc4c3)=NO2)c1 (stereo not shown) next?
a: 1.49[a]

q: Can you check CC(C)NC(=O)C1(C)ON=C(c2ccc3ncc(Br)cc3c2)C1C (stereo not shown) next?
a: 3.04[a]

q: Can you check C#Cc1cnc2ccc(C3=NOC(C)(C(=O)NCCF)C3)cc2c1 (stereo not shown) next?
a: 2.05[a]

q: Can you check C#Cc1cnc2ccc(C3=NOC(C)(C(=O)NC4CCCCC4)C3)cc2c1 (stereo not shown) next?
a: 3.25^[a]

q: Can you check CCSc1cnc2ccc(C3=NOC(C)(C(=O)NCc4cn(CC)nc4C)C3)cc2c1 (stereo not shown) next?
a: 2.39[a]

q: Can you check CC(=O)C1(C(=O)NC2CCC2)CC(c2ccc3ncc(Br)cc3c2)=NO1 (stereo not shown) next?
a: 3.06[a]

q: Can you check C#CCOc1coc(CNC(=O)C2(C)CC(c3ccc4ncc(Br)cc4c3)=NO2)cc1=O (stereo not shown) next?
a: 2.2^[a]

q: Can you check CC(C)NC(=O)C1(C2CC2)CC(c2ccc3ncc(Br)cc3c2)=NO1 (stereo not shown) next?
a: 3.25[a]

q: Can you check C#Cc1cnc2c(Cl)cc(C3=NOC(C)(C(=O)NCc4cnc(C)cn4)C3)cc2c1 (stereo not shown) next?
a: 2.39[a]
